Attribution: patent US20260262643A1

# System: soybean
# test.method.notes: Test C postemergence
# Format: in vivo, Glycine max
# condition.description: Postemergence, 500 g ai/ha, 10 days, visual 0 to 100 scale (0 no effect, 100 complete control)
List of Plant response rating, Soybean values.

Plant response rating, Soybean in this record for Cc1cn(-c2cccc(C(=O)N3C[C@H](C)Oc4c(C)cccc43)c2)cn1 : 100

Plant response rating, Soybean in this record for CCc1ncn(-c2ccc(OC)c(C(=O)N3C[C@H](C)Oc4c(C)cccc43)c2)n1 : 100

Plant response rating, Soybean in this record for CC(C)c1ncn(-c2cc(OC(F)F)c(OC(F)F)c(C(=O)N3C[C@H](C)Oc4c(Cl)cccc43)c2)n1 : 50

----------
# System: kochia
# test.method.notes: Test C preemergence
# Type: in vivo, Bassia scoparia
# condition.description: 500 g ai/ha, preemergence; 0 to 100 scale (0 no effect, 100 complete control)
List of Kochia plant response rating values.
// return just the number, without any unit appended

CCOC[C@H]1CN(C(=O)c2cc(-n3cnc(C4CCC4)n3)cc3c2OCCO3)c2cccc(Cl)c2O1 [Compound 386] = 70

Kochia plant response rating in this record for Cc1ccc(-n2cnc(C#N)n2)cc1C(=O)N1C[C@H](C)Oc2c(Cl)cccc21 [Compound 363] : 0

Kochia plant response rating in this record for CC(C)c1ncn(-c2ccc(OS(=O)(=O)C(F)(F)F)c(C(=O)N3C[C@H](C)Oc4c(Cl)cccc43)c2)n1 [Compound 339] : 50

----------
# Tested on: kochia
# test.method.notes: Test C postemergence
# Type: in vivo, Bassia scoparia
# condition.description: 125 g ai/ha, postemergence, 10 days; 0 to 100 scale, 0 no effect, 100 complete control
measured.endpoint: Plant response rating, Kochia
// return just the number, without any unit appended

Plant response rating, Kochia in this record for CCc1ncn(-c2cc(OC)cc(C(=O)N3C[C@H](C)Oc4c(Cl)cccc43)c2)n1 [Compound 164] : 80

Plant response rating, Kochia in this record for C[C@H]1CN(C(=O)c2cc(-n3cnc(C4CCC4)n3)cc3c2OCCO3)c2cccc(Cl)c2O1 [Compound 157] : 90

Plant response rating, Kochia in this record for Cc1cccc2c1O[C@@H](C)CN2C(=O)c1cccc(-n2cnc(-c3ccccc3)n2)c1 [Compound 283] : 70

Plant response rating, Kochia in this record for Cc1cc(-n2cnc(C(C)C)n2)cc(C(=O)N2C[C@H](C)Oc3c(Cl)cccc32)c1C [Compound 259] : 70

Plant response rating, Kochia in this record for CC(C)c1ncn(-c2cc3c(c(C(=O)N4C[C@H](C)Oc5c(Cl)cccc54)c2)OCCO3)n1 [Compound 217] : 80

Plant response rating, Kochia in this record for Cc1cccc2c1O[C@@H](C)CN2C(=O)c1cccc(-n2cnc(C(C)(C)O)n2)c1 [Compound 278] : 80

Plant response rating, Kochia in this record for COC[C@H]1CN(C(=O)c2cc(-n3cnc(C4CCC4)n3)ccc2OC)c2cccc(Cl)c2O1 [Compound 236] : 90

Plant response rating, Kochia in this record for COc1ccc(-n2cnc(C(C)(C)O)n2)cc1C(=O)N1C[C@H](C)Oc2c(Cl)cccc21 [Compound 254] : 80

Plant response rating, Kochia in this record for COC[C@H]1CN(C(=O)c2cc(-n3cncn3)ccc2C)c2cccc(Cl)c2O1 [Compound 263] : 70

Plant response rating, Kochia in this record for COC[C@H]1CN(C(=O)c2cc(-n3cncn3)ccc2OC)c2cccc(Cl)c2O1 [Compound 234] : 60

Plant response rating, Kochia in this record for COc1ccc(-n2cnc(C(C)C)n2)cc1C(=O)N1C[C@H](C)Oc2c(C)cccc21 [Compound 210] : 70

Plant response rating, Kochia in this record for Cc1cccc2c1O[C@@H](C)CN2C(=O)c1cc(-n2cnc(C(C)C)n2)cc2occc12 [Compound 195] : 90

Plant response rating, Kochia in this record for CCn1cnc(-c2cccc(C(=O)N3C[C@H](C)Oc4c(C)cccc43)c2)n1 [Compound 165] : 0

Plant response rating, Kochia in this record for Cc1ccc(-n2cnc(C(C)C)n2)cc1C(=O)N1C[C@H](C)Oc2c1cccc2C(F)(F)F [Compound 170] : 80

Plant response rating, Kochia in this record for CCc1ncn(-c2ccc(C)c(C(=O)N3CC(C(F)(F)F)Oc4c(Cl)cccc43)c2)n1 (single isomer, unassigned) [Compound 218] : 90

Plant response rating, Kochia in this record for CC(C)c1ncn(-c2ccc(S(=O)(=O)C(F)(F)F)c(C(=O)N3C[C@H](C)Oc4c(Cl)cccc43)c2)n1 [Compound 229] : 0
